EXPERIMENTAL DETAILS: solvent given as SMILES
STUDY CONDITIONS: in ClCCl
Below: a set of entries, each annotated with reported absorption maximum.
Provide only the numeric value, understood in nm.

The following compounds have reported results that may help.
INSERT INTO assay_data (compound, endpoint, recorded_measurement) VALUES
  ('CCCCCCCCOc1ccc(C2=C3C(C)=C(C#Cc4ccc(B(c5c(C)cc(C)cc5C)c5c(C)cc(C)cc5C)cc4)C(C)=[N+]3[B-](F)(F)n3c(C)c(C#Cc4ccc(B(c5c(C)cc(C)cc5C)c5c(C)cc(C)cc5C)cc4)c(C)c32)cc1', 'absorption maximum', 576),
  ('c1ccc2c(c1)-c1cc(-n3c4ccccc4c4ccccc43)ccc1C21c2ccccc2-n2c3ccccc3c3cccc1c32 (stereo not drawn)', 'absorption maximum', 339);

Task item: Complete the entry with absorption maximum for CC[n+]1c(C=C2C(=O)C(C=C3Sc4cc(Cl)ccc4N3C)=C2[O-])[se]c2ccccc21
Reply: 678

Task item: Return reported absorption maximum. Input compound: F[B-]1(F)n2c(nc(-c3ccccc3)c2-c2ccccc2)-c2cccc[n+]21
Reply: 408

###

EXPERIMENTAL DETAILS: solvent given as SMILES
STUDY CONDITIONS: in CS(C)=O
# cutoff 400 nm applies to absorption maximum; >= gives 1 (yes), < gives 0 (no)

Some solved cases for reference:
INSERT INTO assay_data (smiles_data, assigned_label) VALUES
  ('CCCCn1/c(=C/C=C/C2=[N+](C)c3ccccc3C2(C)C)c2cccc3cccc1c32', '1 (yes)'),
  ('C(=C\c1cnc2ccccc2n1)/c1ccc(N(c2ccccc2)c2ccccc2)cc1', '1 (yes)'),
  ('Cc1ccc(-c2nc3sc4ccccc4c3s2)cc1', '0 (no)'),
  ('F[B-]1(F)N2C(=Nc3cccc4cccc2c34)c2cccc[n+]21', '0 (no)');

Moving on to the next molecule.
Task item: Record CCc1ccc(/C=N/c2cc(C(C)C)c(O)cc2C)cc1 ; criterion: absorption maximum no lower than 400 nm. Met?
Reply: 0 (no)

###

EXPERIMENTAL DETAILS: solvent given as SMILES
STUDY CONDITIONS: in CC(C)(C)O
Listing of entries alongside the reported absorption maximum.
Entry rule: numbers only, all in nm.

INSERT INTO measurements (smiles_data, endpoint, recorded_measurement) VALUES
  ('Cc1cc(O)c(C(C)C)cc1/N=C/c1ccc([N+](=O)[O-])cc1', 'absorption maximum', 407),
  ('COCCOCCOCCOc1ccc(OCCOCCOCCOC)c(C=O)c1', 'absorption maximum', 349),
  ('CN(C)c1ccc(/C=C/C=N/N=C/c2ccc3ccc4cccc5ccc2c3c45)cc1', 'absorption maximum', 420),
  ('CN(C)c1ccc2c(c1)C(=O)NC2=O', 'absorption maximum', 387);

Now look at this one.
Task item: Name the recorded absorption maximum of the item CCc1ccc(/C=N/c2cc(C(C)C)c(O)cc2C)cc1 in your answer.
Reply: 350

###

EXPERIMENTAL DETAILS: solvent given as SMILES
STUDY CONDITIONS: in ClCCl
ENDPOINT: absorption maximum (nm)
// units = nm; emit number, no label

Completed entries (count: 4):
INSERT INTO results (smiles_data, recorded_measurement) VALUES
  ('COc1cc(/C=C/c2nc3ccccc3o2)c(OC)cc1/C=C/c1nc(C)nc(/C=C/c2cc(OC)c(/C=C/c3nc4ccccc4o3)cc2OC)n1', 431),
  ('CC1=C2C=CC(c3ccccc3)=[N+]2[B-](F)(F)n2c1ccc2-c1ccccc1', 544),
  ('CCN(CC)c1ccc2c(c1)oc(=O)c1c(=O)oc3cc(Br)ccc3c12', 466),
  ('COC(=O)c1[nH]c(-c2ccccc2)c2nnc3ccc(OC)cc3c12', 392);

Task item: Note down absorption maximum recorded for c1ccc(C2c3ccc4ccc5ccccc5c4c3-c3c2ccc2ccc4ccccc4c32)cc1
Reply: 401
